Biological target: Serine/threonine-protein kinase B-raf (Homo sapiens)
Assay: Binding affinity to recombinant human full-length wild type B-Raf (unknown origin) assessed as QTAQGMDYLHAK accessible protease cleavage peptide level by LC-MS/MS analysis relative to control
In this section, each of the molecules is paired with its reported Ratio.

A selection of reference data follows.
>  <smiles.input>
Nc1ncnc2c1ncn2[C@@H]1O[C@H](COP(=O)(O)OP(=O)(O)OP(=O)(O)O)[C@@H](O)[C@H]1O

>  <Ratio>
0.81

$$$$
>  <smiles.input>
Nc1ncnc2c1ncn2[C@@H]1O[C@H](COP(=O)(O)OP(=O)(O)O)[C@@H](O)[C@H]1O

>  <Ratio>
1.22

$$$$
>  <smiles.input>
CCN(C)S(=O)(=O)Nc1ccc(F)c(C(=O)c2c[nH]c3ncc(Cl)cc23)c1F

>  <Ratio>
0.9

$$$$
>  <smiles.input>
Nc1ncnc2c1ncn2[C@@H]1O[C@H](COP(=O)(O)OP(=O)(O)NP(=O)(O)O)[C@@H](O)[C@H]1O

>  <Ratio>
0.72

$$$$

// switching to the query molecule
Need Ratio of `CCN(C)S(=O)(=O)Nc1ccc(F)c(C(=O)c2c[nH]c3ncc(-c4ccc(Cl)cc4)cc23)c1F` , thanks. 0.36

* * *

Target: Serine/threonine-protein kinase B-raf (Homo sapiens)
Assay: Binding affinity to recombinant human full-length wild type B-Raf (unknown origin) assessed as IGSGSFGTVYK accessible protease cleavage peptide level by LC-MS/MS analysis relative to control
In this section, each of the compounds is paired with its reported Ratio.
Write the value as a bare number.

A selection of reference data follows.
>  <smiles.input>
CCN(C)S(=O)(=O)Nc1ccc(F)c(C(=O)c2c[nH]c3ncc(Cl)cc23)c1F

>  <Ratio>
0.62

$$$$
>  <smiles.input>
Nc1ncnc2c1ncn2[C@@H]1O[C@H](COP(=O)(O)OP(=O)(O)O)[C@@H](O)[C@H]1O

>  <Ratio>
1.18

$$$$
>  <smiles.input>
Nc1ncnc2c1ncn2[C@@H]1O[C@H](COP(=O)(O)OP(=O)(O)NP(=O)(O)O)[C@@H](O)[C@H]1O

>  <Ratio>
0.83

$$$$
>  <smiles.input>
CCN(C)S(=O)(=O)Nc1ccc(F)c(C(=O)c2c[nH]c3ncc(-c4ccc(Cl)cc4)cc23)c1F

>  <Ratio>
0.42

$$$$

Need Ratio of `Nc1ncnc2c1ncn2[C@@H]1O[C@H](COP(=O)(O)OP(=O)(O)OP(=O)(O)O)[C@@H](O)[C@H]1O` , thanks. 0.62

* * *

Target: Serine/threonine-protein kinase B-raf (Homo sapiens, UniProt P15056)
Sequence (P15056 whole entry): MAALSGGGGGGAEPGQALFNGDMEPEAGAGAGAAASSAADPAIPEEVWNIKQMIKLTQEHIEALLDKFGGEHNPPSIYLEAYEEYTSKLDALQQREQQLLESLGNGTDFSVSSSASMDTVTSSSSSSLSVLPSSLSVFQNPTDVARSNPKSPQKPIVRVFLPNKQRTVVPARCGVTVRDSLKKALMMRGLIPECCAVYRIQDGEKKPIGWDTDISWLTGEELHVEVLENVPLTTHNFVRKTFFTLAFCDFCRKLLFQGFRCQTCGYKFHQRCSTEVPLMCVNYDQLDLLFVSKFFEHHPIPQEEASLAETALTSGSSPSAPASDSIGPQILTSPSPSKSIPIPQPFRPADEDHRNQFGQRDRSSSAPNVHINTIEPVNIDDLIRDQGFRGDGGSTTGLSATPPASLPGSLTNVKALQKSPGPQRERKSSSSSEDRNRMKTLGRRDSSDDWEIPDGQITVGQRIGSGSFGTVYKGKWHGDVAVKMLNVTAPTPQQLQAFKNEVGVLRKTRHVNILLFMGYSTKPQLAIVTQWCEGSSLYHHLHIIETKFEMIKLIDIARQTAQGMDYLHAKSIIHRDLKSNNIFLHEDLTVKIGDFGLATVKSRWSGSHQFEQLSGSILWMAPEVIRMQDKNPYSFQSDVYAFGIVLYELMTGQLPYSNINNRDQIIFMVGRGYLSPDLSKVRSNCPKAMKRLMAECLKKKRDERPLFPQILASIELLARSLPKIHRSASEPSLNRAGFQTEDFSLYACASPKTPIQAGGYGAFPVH
Test: Binding affinity to recombinant human full-length wild type B-Raf (unknown origin) assessed as DSLKK accessible protease cleavage peptide level by LC-MS/MS analysis relative to control
recorded.metric: Ratio
Write the value as a bare number.

A selection of reference data follows.
>  <smiles.input>
CCN(C)S(=O)(=O)Nc1ccc(F)c(C(=O)c2c[nH]c3ncc(-c4ccc(Cl)cc4)cc23)c1F

>  <Ratio>
0.93

$$$$
>  <smiles.input>
Nc1ncnc2c1ncn2[C@@H]1O[C@H](COP(=O)(O)OP(=O)(O)OP(=O)(O)O)[C@@H](O)[C@H]1O

>  <Ratio>
0.76

$$$$

Need Ratio of `Nc1ncnc2c1ncn2[C@@H]1O[C@H](COP(=O)(O)OP(=O)(O)NP(=O)(O)O)[C@@H](O)[C@H]1O` , thanks. 0.76

Need Ratio of `CCN(C)S(=O)(=O)Nc1ccc(F)c(C(=O)c2c[nH]c3ncc(Cl)cc23)c1F` , thanks. 1.71

Need Ratio of `Nc1ncnc2c1ncn2[C@@H]1O[C@H](COP(=O)(O)OP(=O)(O)O)[C@@H](O)[C@H]1O` , thanks. 1.34

These data points were gathered from ChEMBL document CHEMBL3414549.
